experiment: Dog pharmacokinetics, oral gavage (Experiment 3); type: in vivo; settings: Beagle dogs, oral gavage 2.5 mg/kg, plasma
Please respond with reported MRT inf for every item in the list.
Write the answer as a number in h, unit excluded.

If you can, please state the reported MRT inf value of Cn1c(=O)n(C2CCC(=O)NC2=O)c2cccc(C#CCOC3CCN(C[C@H]4CC[C@H](n5cc(NC(=O)c6cnn7ccc(N8C[C@H]9C[C@@H]8CO9)nc67)c(C(F)F)n5)CC4)CC3)c21 (some centres unmarked) [KT-474, reference compound] .
10.3

If you can, please state the reported MRT inf value of Cn1c(=O)n(C2CCC(=O)NC2=O)c2cccc(C#CCCN3CCC4(CC3)CC(n3cc(NC(=O)c5cnn6ccc(N7C[C@H]8C[C@@H]7CO8)nc56)c(C(F)F)n3)C4)c21 (some centres unmarked) .
11.2

If you can, please state the reported MRT inf value of Cn1c(=O)n(C2CCC(=O)NC2=O)c2cccc(C#CCO[C@H]3CC[C@H](CN4CCC5(CC4)CC(n4cc(NC(=O)c6cnn7ccc(N8C[C@H]9C[C@@H]8CO9)nc67)c(C(F)F)n4)C5)CC3)c21 (some centres unmarked) .
12

If you can, please state the reported MRT inf value of Cn1c(=O)n(C2CCC(=O)NC2=O)c2cccc(C#CCOC34CCC(CN5CCC6(CC5)CC(n5cc(NC(=O)c7cnn8ccc(N9C[C@H]%10C[C@@H]9CO%10)nc78)c(C(F)F)n5)C6)(CC3)CC4)c21 (some centres unmarked) .
20.2

If you can, please state the reported MRT inf value of Cn1c(=O)n(C2CCC(=O)NC2=O)c2cccc(C#CCOC3CCN(C(=O)N4CCC5(CC4)CC(n4cc(NC(=O)c6cnn7ccc(N8C[C@H]9C[C@@H]8CO9)nc67)c(C(F)F)n4)C5)CC3)c21 (some centres unmarked) .
4.5

====

assay: Mouse pharmacokinetics, oral (Experiment 2); type: in vivo, C57BL/6 mice; conditions: mice, PO 100 mg/kg, free access to food, plasma
ASSAY READOUT: AUC(0-t) at 24 h (ng·h/mL)
Write the answer as a number in ng·h/mL, unit excluded.

If you can, please state the reported AUC(0-t) at 24 h value of Cn1c(=O)n(C2CCC(=O)NC2=O)c2cccc(C#CCOC34CCC(CN5CCC6(CC5)CC(n5cc(NC(=O)c7cnn8ccc(N9C[C@H]%10C[C@@H]9CO%10)nc78)c(C(F)F)n5)C6)(CC3)CC4)c21 (stereo partly shown) .
40100

====

Please respond with reported AUC(0-t) at 24 h for every item in the list.
assay: Dog pharmacokinetics, oral gavage (Experiment 3); format: in vivo; conditions: Beagle dogs, oral gavage 2.5 mg/kg, plasma
Write the answer as a number in ng·h/mL, unit excluded.

If you can, please state the reported AUC(0-t) at 24 h value of Cn1c(=O)n(C2CCC(=O)NC2=O)c2cccc(C#CCCN3CCC4(CC3)CC(n3cc(NC(=O)c5cnn6ccc(N7C[C@H]8C[C@@H]7CO8)nc56)c(C(F)F)n3)C4)c21 (some centres unmarked) .
1190

If you can, please state the reported AUC(0-t) at 24 h value of Cn1c(=O)n(C2CCC(=O)NC2=O)c2cccc(C#CCOC34CCC(CN5CCC6(CC5)CC(n5cc(NC(=O)c7cnn8ccc(N9C[C@H]%10C[C@@H]9CO%10)nc78)c(C(F)F)n5)C6)(CC3)CC4)c21 (some centres unmarked) .
1160

If you can, please state the reported AUC(0-t) at 24 h value of Cn1c(=O)n(C2CCC(=O)NC2=O)c2cccc(C#CCOC3CCN(C(=O)N4CCC5(CC4)CC(n4cc(NC(=O)c6cnn7ccc(N8C[C@H]9C[C@@H]8CO9)nc67)c(C(F)F)n4)C5)CC3)c21 (some centres unmarked) .
521

If you can, please state the reported AUC(0-t) at 24 h value of Cn1c(=O)n(C2CCC(=O)NC2=O)c2cccc(C#CCO[C@H]3CC[C@H](CN4CCC5(CC4)CC(n4cc(NC(=O)c6cnn7ccc(N8C[C@H]9C[C@@H]8CO9)nc67)c(C(F)F)n4)C5)CC3)c21 (some centres unmarked) .
198

If you can, please state the reported AUC(0-t) at 24 h value of Cn1c(=O)n(C2CCC(=O)NC2=O)c2cccc(C#CCOC3CCN(C[C@H]4CC[C@H](n5cc(NC(=O)c6cnn7ccc(N8C[C@H]9C[C@@H]8CO9)nc67)c(C(F)F)n5)CC4)CC3)c21 (some centres unmarked) [KT-474, reference compound] .
380
